Target: Cannabinoid receptor 1 (Rattus norvegicus) (UniProt P20272)
Sequence (P20272 whole entry): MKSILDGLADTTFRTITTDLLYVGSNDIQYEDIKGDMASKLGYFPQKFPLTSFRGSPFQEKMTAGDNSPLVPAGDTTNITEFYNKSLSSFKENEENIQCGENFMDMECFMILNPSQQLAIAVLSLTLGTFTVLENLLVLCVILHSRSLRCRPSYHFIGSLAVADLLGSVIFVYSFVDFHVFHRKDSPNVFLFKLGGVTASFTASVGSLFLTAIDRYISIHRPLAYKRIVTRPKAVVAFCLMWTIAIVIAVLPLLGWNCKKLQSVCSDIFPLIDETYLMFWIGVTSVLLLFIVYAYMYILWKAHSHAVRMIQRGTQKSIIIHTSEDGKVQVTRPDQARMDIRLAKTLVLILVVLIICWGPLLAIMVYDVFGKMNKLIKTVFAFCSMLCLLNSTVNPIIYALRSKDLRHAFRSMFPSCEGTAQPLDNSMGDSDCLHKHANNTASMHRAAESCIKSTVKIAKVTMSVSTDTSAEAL
Experiment: Antagonist activity at rat cannabinoid CB1 receptor in Wistar rat cerebellar membranes at 10 uM by [35S]GTPgammaS binding assay
Assay type: functional, cell membranes
Conditions: Cerebellum, Membrane
Active and inactive are the calls of the source. The rule behind the calls is not given here.
measured metric: Activity

Example molecules with recorded Activity:
c1ccc2nc(N3CCCCC3)ccc2c1 :: inactive
c1ccc2nc(N3CCOCC3)ccc2c1 :: inactive
c1ccc(CNc2ccc3ccccc3n2)cc1 :: inactive
FC(F)(F)c1cccc(Nc2ncnc3ccccc23)c1 :: inactive
c1ccc(Nc2ncnc3ccccc23)cc1 :: inactive
c1ccc2nc(NC3CCCC3)ccc2c1 :: inactive
c1ccc(Sc2nccc3ccccc23)cc1 :: inactive
COc1ccccc1NC(=O)c1cnc(Nc2cccc(C(F)(F)F)c2)c2ccccc12 :: inactive

Query block: Reported Activity for FC(F)(F)c1ccc(Nc2ccc3ccccc3n2)cc1 : what is it?
Result block: inactive

Query block: Reported Activity for CCCCCCNc1ccc2ccccc2n1 : what is it?
Result block: inactive

Query block: Reported Activity for O=C(NCc1ccccc1)c1cc2ccccc2c(Nc2cccc(C(F)(F)F)c2)n1 : what is it?
Result block: inactive

* * *

Biological target: Cannabinoid receptor 2 (Homo sapiens)
Experiment: Agonist activity at human recombinant cannabinoid CB2 receptor expressed in CHO cells by [35S]GTPgammaS binding assay relative to HU-210
Format: functional, cell-based
measured metric: Emax (%)
Numeric only. Scale: %

Example compounds with recorded Emax:
O=C(c1cnc(Nc2cccc(C(F)(F)F)c2)c2ccccc12)N1CCOCC1 :: 75
Brc1cccc(Nc2ccc3ccccc3n2)c1 :: 69
Clc1ccccc1Nc1ccc2ccccc2n1 :: 91
c1ccc(Sc2ccc3ccccc3n2)cc1 :: 61
O=C(NC1CCCCC1)c1cnc(Nc2cccc(C(F)(F)F)c2)c2ccccc12 :: 73

Query block: Reported Emax for FC(F)(F)c1cccc(Nc2cnc3ccccc3n2)c1 : what is it?
Result block: 69

Query block: Reported Emax for FC(F)(F)c1cccc(Nc2nccc3ccccc23)c1 : what is it?
Result block: 124

Query block: Reported Emax for FC(F)(F)c1cccc(Nc2ncnc3ccccc23)c1 : what is it?
Result block: 79

* * *

Target: Cannabinoid receptor 2 (Homo sapiens)
Assay: Agonist activity at human recombinant cannabinoid CB2 receptor expressed in CHO cells at 10 uM by [35S]GTPgammaS binding assay
Assay type: functional, cell-based
Class t: Activity at least 40%. Class f: Activity below 40%.

FC(F)(F)c1cccc(Nc2ncnc3ccccc23)c1 :: t
O=C(NCc1ccccc1)c1cc2ccccc2c(Nc2cccc(C(F)(F)F)c2)n1 :: f
c1ccc(Nc2ncnc3ccccc23)cc1 :: f

API: the following record is the query input.
Query block: Say whether c1ccc2nc(NC3CCCCC3)ccc2c1 shows Activity of 40% or more.
Result block: t

* * *

Biological target: Cannabinoid receptor 2 (Homo sapiens) (UniProt P34972)
Sequence (P34972 whole entry): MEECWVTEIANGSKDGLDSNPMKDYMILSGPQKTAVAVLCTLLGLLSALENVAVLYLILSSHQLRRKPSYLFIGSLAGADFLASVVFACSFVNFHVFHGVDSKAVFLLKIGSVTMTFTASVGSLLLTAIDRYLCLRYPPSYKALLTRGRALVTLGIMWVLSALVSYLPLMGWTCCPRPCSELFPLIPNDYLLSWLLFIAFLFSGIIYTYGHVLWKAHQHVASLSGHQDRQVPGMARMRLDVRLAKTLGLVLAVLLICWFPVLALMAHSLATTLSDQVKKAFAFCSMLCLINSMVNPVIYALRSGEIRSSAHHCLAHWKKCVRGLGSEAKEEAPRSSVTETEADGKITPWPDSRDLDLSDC
Experiment: Agonist activity at human recombinant cannabinoid CB2 receptor expressed in CHO cells at 10 uM by [35S]GTPgammaS binding assay
Assay type: functional, cell-based
Under this convention, YES denotes Activity strictly below 60% and NO denotes Activity at or above 60%.

O=C(c1cnc(Nc2cccc(C(F)(F)F)c2)c2ccccc12)N1CCOCC1 :: NO
c1ccc(Oc2nccc3ccccc23)cc1 :: YES
CN(C)c1ccc(Nc2ccc3ccccc3n2)cc1 :: YES
Clc1cccc(Nc2ccc3ccccc3n2)c1 :: YES
FC(F)(F)c1ccc(Nc2ccc3ccccc3n2)cc1 :: YES

Query block: Is Activity of COc1ccccc1Nc1ccc2ccccc2n1 strictly below 60%?
Result block: NO

Query block: Is Activity of c1ccc(Sc2cnc3ccccc3c2)cc1 strictly below 60%?
Result block: YES

Query block: Is Activity of FC(F)(F)c1ccccc1Nc1ccc2ccccc2n1 strictly below 60%?
Result block: NO

Query block: Is Activity of FC(F)(F)c1ccc(Nc2nccc3ccccc23)cc1 strictly below 60%?
Result block: YES

meta.source: ChEMBL document CHEMBL1641511
